- MEASUREMENT_TARGET: PKA (Homo sapiens)
QUANTITY: pIC50
Scale: negative log10 of molar concentration, which is what pIC50 denotes.

Lab note: compound COC(=O)[C@@]1(O)C[C@H]2O[C@]1(C)n1c3ccccc3c3c4c(c5c6ccccc6n2c5c31)C(=O)NC4 [K252a, reference compound] tested on PKA (Homo sapiens); recorded pIC50 was 9.85

---

- MEASUREMENT_TARGET: catalytic subunit of PKA (Homo sapiens, UniProt P17612)
- EXPERIMENTAL_PROTOCOL: Fluorescence polarization, affinity for PKA catalytic subunit
- Type: binding
- SETUP_CONDITIONS: presence of 100 μM ATP
Ends that are not written are not given here. * marks the point of attachment. Fluorescein(5-NHCOCH2) = O=C(C*)Nc1ccc2c(c1)C(=O)OC21c2ccc(O)cc2Oc2cc(O)ccc21
QUANTITY: Kd (nM)
Reply numerically in nM, unit not repeated.

For reference, reported Kd for GPSQPTYPGDDAPVEDLIRFYNDLTYYLFVVSGRTGRRNAIHDC(Fluorescein(5-NHCOCH2))-NH2 (C-terminus assumed) [1^Flu] stands at 99

Data origin, for the record: patent US20110028686A1
